The following sequences are shown together with reported ΔTm, melting point change values.
- study_system: full length SARS-CoV-2 Spike (Severe acute respiratory syndrome coronavirus 2)
- Assay type: binding
- condition_parameters: 10 µM
value_type: ΔTm, melting point change (°C)

entry_sequence	study_system	readout_number
IVLHDGLRSATVLWI [SARS2R3L2]	full length SARS-CoV-2 Spike (Severe acute respiratory syndrome coronavirus 2)	1.5
LVFHDNVYTVTVVHV [SARS2R3L1]	full length SARS-CoV-2 Spike (Severe acute respiratory syndrome coronavirus 2)	1
SIENYLKKLGYVLLW [SARS2D4]	full length SARS-CoV-2 Spike (Severe acute respiratory syndrome coronavirus 2)	−0.5
VIWHPDRWTSVVLQI [SARS2L2]	full length SARS-CoV-2 Spike (Severe acute respiratory syndrome coronavirus 2)	2
SVVFSADGRHYYWDS [SARS2L3]	full length SARS-CoV-2 Spike (Severe acute respiratory syndrome coronavirus 2)	0
NARILQRWFPELAHL [SARS2D1]	full length SARS-CoV-2 Spike (Severe acute respiratory syndrome coronavirus 2)	0

Values were extracted from patent US20260242415A1.
